Each entry below lists one item and its recorded melting point value.

{"compound": "CN1CCN(c2ccccc2C=C2SCCNC2=O)CC1", "melting point": "133 to 135 °C"}
{"compound": "CN1CCN(c2ccccc2C=C2SC(=O)N(c3ccc(C(F)(F)F)cc3)C2=O)CC1.Cl.O.O (hydrate or solvate)", "melting point": "159 to 177 °C"}

Please examine the following record next.
Bench note: what melting point did `CN1CCN(c2cccc(F)c2C=C2SCCN(c3ccc(Cl)c(Cl)c3)C2=O)CC1` show?
146 to 147 °C

* * *

Each entry below lists one item and its recorded melting point value.

{"compound": "CN1CCN(c2ccccc2C=C2NC(=O)N(c3ccc(Cl)cc3)C2=O)CC1", "measurement": "193 to 193.5 °C"}
{"compound": "CN1CCN(c2ccccc2C=C2SCCN(Cc3ccccc3)C2=O)CC1", "measurement": "106 to 108 °C"}
{"compound": "CN1CCN(c2ccccc2C=C2SCCN(c3ccc(C(F)(F)F)cc3)C2=O)CC1.Cl.O.O.O (hydrate or solvate)", "measurement": "128 to 134 °C"}
{"compound": "CN1CCN(c2ccccc2C=C2SCCN(Cc3ccc(Cl)c(Cl)c3)C2=O)CC1.Cl.O.O (hydrate or solvate)", "measurement": "90 to 115 °C"}

Please examine the following record next.
Bench note: what melting point did `CN1CCN(c2ccccc2C=C2OCCN(c3ccc(Cl)c(Cl)c3)C2=O)CC1` show?
169 to 171 °C (dec.)
